Below is a list of entries, each paired with its recorded viability at 5 µM value.
- System: S. mansoni adult worms
- protocol: Schistosomicidal activity ex vivo, adult worms (Cell Titer Glo), alone or with channel blockers
- Type: cell-based
- condition_notes: Schistosoma mansoni; S. mansoni adult worms, Conc. 5 µM; read-out: % viability
- Protocol: Three-week old, female Swiss-Webster mice obtained from the Charles River were housed in the Comparative Research Center of Rush University Medical Center. […] DMSO formulated compounds were diluted with phenol red free M199 medium or RPMI medium for NTS or juvenile and adult worms, respectively, at <1% DMSO final concentrations. […] Schistosome viabilities in the presence of the compounds were assessed using this formula: % Viability = Averages of Test / Averages of DMSO Control x 100.
The reply should contain only the number, in %.

Reference set, count: 3
C#CCN(Cc1nc(-c2ccccc2)oc1C)[C@@H]1C[C@@H]2C[C@H]([C@H]1C)C2(C)C ... 88.5
Cc1oc(-c2ccc3c(c2)OCO3)nc1CN[C@@H]1C[C@@H]2C[C@H]([C@H]1C)C2(C)C ... 77.3
CCc1ccccc1-c1nc(CN[C@@H]2C[C@@H]3C[C@H]([C@H]2C)C3(C)C)c(C)o1 ... 86.9

Per the records, this compound ( Cc1oc(C2CCCCC2)nc1C(=O)N[C@@H]1C[C@@H]2C[C@H]([C@H]1C)C2(C)C ) has viability at 5 µM equal to 99.8

---

- target_of_assay: TGR (Schistosoma mansoni, UniProt Q962Y6)
- Construct: made in house
- Sequence (Q962Y6 1-598): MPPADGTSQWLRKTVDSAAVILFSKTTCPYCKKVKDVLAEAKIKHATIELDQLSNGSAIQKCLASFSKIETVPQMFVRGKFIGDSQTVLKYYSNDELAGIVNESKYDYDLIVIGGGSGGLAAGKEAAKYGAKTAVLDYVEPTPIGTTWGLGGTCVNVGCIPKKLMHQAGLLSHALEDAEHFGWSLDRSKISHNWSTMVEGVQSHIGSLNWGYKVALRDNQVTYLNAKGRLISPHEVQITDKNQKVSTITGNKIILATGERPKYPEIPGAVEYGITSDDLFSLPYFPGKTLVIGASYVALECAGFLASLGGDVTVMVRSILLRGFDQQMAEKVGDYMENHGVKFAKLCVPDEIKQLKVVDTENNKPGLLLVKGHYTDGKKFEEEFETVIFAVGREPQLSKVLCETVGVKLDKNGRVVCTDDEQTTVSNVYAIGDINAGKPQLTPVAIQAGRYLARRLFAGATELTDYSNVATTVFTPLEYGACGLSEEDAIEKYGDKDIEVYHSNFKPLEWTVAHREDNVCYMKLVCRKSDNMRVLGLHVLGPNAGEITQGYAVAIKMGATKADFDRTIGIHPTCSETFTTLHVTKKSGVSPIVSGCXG
- protocol: Time dependence of inhibition
- Format: biochemical
- Parameters: tested at 50 µM
- condition_notes: panel d Time Dependence; 3 hr; average
Parameter: avg % inhib, 3 hr. Scope: all listed entries.
State just the number; it will be interpreted in %.

Cc1oc(-c2ccccc2)nc1CN[C@@H]1C[C@@H]2C[C@H]([C@H]1C)C2(C)C [Compound 3] ... 45.1094

Notebook: Cc1oc(C2CCCCC2)nc1CN[C@@H]1C[C@@H]2C[C@H]([C@H]1C)C2(C)C [Compound 4] , avg % inhib, 3 hr read as 55.4006

Noted for Cc1oc(-c2ccc3c(c2)OCO3)nc1CN[C@@H]1C[C@@H]2C[C@H]([C@H]1C)C2(C)C [Compound 1] : its avg % inhib, 3 hr reads 4.332

Query Cc1oc(-c2ccc3ccccc3c2)nc1CNC1CCCCCC1 [Compound 5] yields avg % inhib, 3 hr of 39.3918

---

- target_of_assay: Human GR (Homo sapiens, UniProt P00390)
- Construct: made in house
- Sequence (P00390 44-522): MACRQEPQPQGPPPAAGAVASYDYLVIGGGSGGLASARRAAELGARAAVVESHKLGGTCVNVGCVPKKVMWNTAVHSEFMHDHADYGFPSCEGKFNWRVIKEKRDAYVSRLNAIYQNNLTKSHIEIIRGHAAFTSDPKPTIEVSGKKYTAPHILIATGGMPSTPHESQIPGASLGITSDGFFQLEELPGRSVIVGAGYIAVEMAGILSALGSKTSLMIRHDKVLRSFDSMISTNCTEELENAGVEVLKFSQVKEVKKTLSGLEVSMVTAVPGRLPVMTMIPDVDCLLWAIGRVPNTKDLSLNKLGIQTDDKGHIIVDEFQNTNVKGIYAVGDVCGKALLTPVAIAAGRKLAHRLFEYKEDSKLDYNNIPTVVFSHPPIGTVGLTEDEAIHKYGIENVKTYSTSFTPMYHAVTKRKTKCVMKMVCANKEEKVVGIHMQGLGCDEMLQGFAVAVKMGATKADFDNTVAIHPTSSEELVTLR
- protocol: Human GR enzyme inhibition (GSSG reduction, NADPH oxidation)
- Assay type: biochemical
- condition_notes: hGR, 6 hours pre-incubation, compound 15 µM; read-out: % inhibition
- Method: Recombinant TGR, human TrxR1, B. malayi (Bm)TrxR and human GR proteins were expressed and purified as described[20],[69],[79]. […] The reaction was started with addition of an equal volume of DTNB (6 mM) and NADPH (100 µM) and the increase in A412 during the first 3 min was recorded. […] Activity was initiated with the addition of 1 mM GSSG and 100 μM NADPH and initial rates of NADPH oxidation were monitored at 340 nm. […] The IC50 was calculated in GraphPad Prism.
measured_metric: inhibition at 15 µM (%)
Expressed in %, but write only the number.

C[C@@H]1[C@H]2C[C@@H](C[C@H]1NCc1nc3ccccc3n1C1CCCCCC1)C2(C)C ... -4.52
CCc1ccccc1-c1nc(CN[C@@H]2C[C@@H]3C[C@H]([C@H]2C)C3(C)C)c(C)o1 ... -5.17
CC1C(NCc2cn(C3OCC(O)C(O)C3O)c3ccccc23)CC2CC1C2(C)C (stereo not drawn) ... -0.844
Cc1oc(-c2ccc3c(c2)OCO3)nc1CN[C@@H]1C[C@@H]2C[C@H]([C@H]1C)C2(C)C ... -0.519
C#CCN(Cc1nc(-c2ccccc2)oc1C)[C@@H]1C[C@@H]2C[C@H]([C@H]1C)C2(C)C ... -0.648

# Cc1oc(C2CCCCC2)nc1C(=O)N[C@@H]1C[C@@H]2C[C@H]([C@H]1C)C2(C)C with Human GR (Homo sapiens, UniProt P00390): inhibition at 15 µM is -0.918

---

Parameter % viability: see the listing below.
- System: S. mansoni newly transformed schistosomula (NTS)
- protocol: Schistosomicidal activity ex vivo, NTS (Cell Titer Glo)
- Format: cell-based
- condition_notes: S. mansoni NTS, Conc. 5 µM
Dear colleague, please return just the value in %, with no unit written.

See these solved cases before continuing.
Cc1oc(-c2ccc3ccccc3c2)nc1CNC1CCCCCC1 ... 52.5668
CC(=O)OC[C@H]1O[C@@H]([S-])[C@H](OC(C)=O)[C@@H](OC(C)=O)[C@@H]1OC(C)=O.CCP(CC)CC.[Au+] [AF, auranofin, reference compound] ... 0.4904
Cc1oc(-c2ccccc2)nc1CN[C@@H]1C[C@@H]2C[C@H]([C@H]1C)C2(C)C ... 6.85

Let's switch to this compound now.
So, Cc1oc(C2CCCCC2)nc1CN[C@@H]1C[C@@H]2C[C@H]([C@H]1C)C2(C)C ? Its % viability was 22.4326

---

- target_of_assay: S. mansoni TGR (Schistosoma mansoni)
- Construct: made in house
- protocol: S. mansoni TGR enzyme inhibition (DTNB reduction)
- Format: biochemical
- condition_notes: TGR, 15 minutes pre-incubation, compound 15 µM; read-out: % inhibition
measured_metric: inhibition at 15 µM (%)
Please give a number only; it is taken to be in %.

The following compounds have reported results that may help.
CCc1ccccc1-c1nc(CN[C@@H]2C[C@@H]3C[C@H]([C@H]2C)C3(C)C)c(C)o1 [Compound 2] ... 4.35
C[C@@H]1[C@H]2C[C@@H](C[C@H]1NCc1nc3ccccc3n1C1CCCCCC1)C2(C)C [Compound 8] ... 57.4
Cc1oc(-c2ccc3c(c2)OCO3)nc1CN[C@@H]1C[C@@H]2C[C@H]([C@H]1C)C2(C)C [Compound 1] ... 5.86
Cc1oc(C2CCCCC2)nc1C(=O)N[C@@H]1C[C@@H]2C[C@H]([C@H]1C)C2(C)C [Compound 7] ... 75.5

Now, please, on to the next compound.
Query CC1C(NCc2cn(C3OCC(O)C(O)C3O)c3ccccc23)CC2CC1C2(C)C (centres unmarked) [Compound 9] yields inhibition at 15 µM of 32.6

---

- target_of_assay: Human TrxR1 (Homo sapiens)
- Construct: made in house
- Sequence (Q16881 151-649): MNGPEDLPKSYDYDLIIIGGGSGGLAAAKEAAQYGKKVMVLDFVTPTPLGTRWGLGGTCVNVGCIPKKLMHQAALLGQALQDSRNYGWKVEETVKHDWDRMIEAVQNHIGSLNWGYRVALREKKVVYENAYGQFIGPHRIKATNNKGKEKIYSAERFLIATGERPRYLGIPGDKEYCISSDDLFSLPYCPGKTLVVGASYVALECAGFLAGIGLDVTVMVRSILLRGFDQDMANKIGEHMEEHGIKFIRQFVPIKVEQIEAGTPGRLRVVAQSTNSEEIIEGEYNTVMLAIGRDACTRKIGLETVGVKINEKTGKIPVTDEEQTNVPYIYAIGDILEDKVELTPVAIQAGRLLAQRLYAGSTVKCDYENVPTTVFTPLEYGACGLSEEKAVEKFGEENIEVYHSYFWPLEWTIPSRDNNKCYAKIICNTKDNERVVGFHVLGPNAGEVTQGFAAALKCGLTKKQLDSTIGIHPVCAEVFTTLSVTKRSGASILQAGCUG
- protocol: Human TrxR1 enzyme inhibition (DTNB reduction)
- Assay type: biochemical
- condition_notes: hsTrxR, 15 minutes pre-incubation, compound 15 µM
The following compounds are listed with their measured inhibition at 15 µM values.
Field format: number, assumed %, no unit text.

See these solved cases before continuing.
Cc1oc(-c2ccc3c(c2)OCO3)nc1CN[C@@H]1C[C@@H]2C[C@H]([C@H]1C)C2(C)C [Compound 1] ... 6.99
CCc1ccccc1-c1nc(CN[C@@H]2C[C@@H]3C[C@H]([C@H]2C)C3(C)C)c(C)o1 [Compound 2] ... 2.2
Cc1oc(C2CCCCC2)nc1C(=O)N[C@@H]1C[C@@H]2C[C@H]([C@H]1C)C2(C)C [Compound 7] ... 38.1
CC1C(NCc2cn(C3OCC(O)C(O)C3O)c3ccccc23)CC2CC1C2(C)C (centres unmarked) [Compound 9] ... 5.09

Now look at this one.
Item: Cc1oc(C2CCCCC2)nc1CN[C@@H]1C[C@@H]2C[C@H]([C@H]1C)C2(C)C [Compound 4] | inhibition at 15 µM: 14.3

---

- Test system: S. mansoni adult worms
- protocol: GSH/GSSG ratio in ex vivo adult worms
- Format: cell-based
- condition_notes: 1 hr; third data set
measured_metric: Reduction (%) in GSH/GSSG ratio
Respond numerically; units are % and should not be typed.

Looking up Cc1oc(-c2ccc3c(c2)OCO3)nc1CN[C@@H]1C[C@@H]2C[C@H]([C@H]1C)C2(C)C , I found its Reduction (%) in GSH/GSSG ratio recorded as 50.9919

Memo: Cc1oc(-c2ccccc2)nc1CN[C@@H]1C[C@@H]2C[C@H]([C@H]1C)C2(C)C , reported Reduction (%) in GSH/GSSG ratio: 60.3556

Value of measured Reduction (%) in GSH/GSSG ratio for the entry C[C@@H]1[C@H]2C[C@@H](C[C@H]1NCc1nc3ccccc3n1C1CCCCCC1)C2(C)C : 13.1896

So for CC1C(NCc2cn(C3OCC(O)C(O)C3O)c3ccccc23)CC2CC1C2(C)C (centres unmarked) , the logged Reduction (%) in GSH/GSSG ratio turned out to be 1.8641

Entry under test: C#CCN(Cc1nc(-c2ccccc2)oc1C)[C@@H]1C[C@@H]2C[C@H]([C@H]1C)C2(C)C . Its Reduction (%) in GSH/GSSG ratio was 3.259

Reference for the values: paper PMC10287695
